SYSTEM: T1, human calcitonin receptors (T47D and MCF7-7 breast carcinoma cells) (human, UniProt P30988 25-474)
T1 construct: whole, on cells; also called calcitonin (T47D) receptors
T1 sequence (looked up): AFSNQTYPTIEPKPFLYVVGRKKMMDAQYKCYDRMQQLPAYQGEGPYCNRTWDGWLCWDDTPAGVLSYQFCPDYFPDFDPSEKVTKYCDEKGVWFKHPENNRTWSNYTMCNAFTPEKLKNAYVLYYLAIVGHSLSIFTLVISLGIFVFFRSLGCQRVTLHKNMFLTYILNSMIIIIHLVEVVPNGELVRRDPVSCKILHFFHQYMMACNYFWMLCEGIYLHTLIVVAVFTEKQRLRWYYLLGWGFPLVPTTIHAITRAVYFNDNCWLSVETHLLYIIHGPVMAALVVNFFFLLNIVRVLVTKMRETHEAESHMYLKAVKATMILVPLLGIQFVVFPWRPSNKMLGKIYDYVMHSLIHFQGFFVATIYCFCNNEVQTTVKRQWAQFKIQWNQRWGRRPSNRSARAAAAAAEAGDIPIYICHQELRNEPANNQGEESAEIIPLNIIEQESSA
PROTOCOL DESCRIPTION: radioligand competition, [125I]salmon calcitonin on T47D cell membranes
Square brackets hold non-standard residues; d marks the D form. Ends that are not written are not given here. * marks the point of attachment. Aib = CC(C)(N)C(=O)O; For = O=C*
REPORTED METRIC: IC50 (nM)

# annotated cases, reported IC50 shown
What measured IC50 goes with VL[Aib]K(For)LSQEL[Aib]K(For)LQTYPRTNTGSNTY-NH2 [Compound 8] ?
93

Next binder up: XLSTSVLGRLSQELHRLQTYPRTNTGSNTY (N-terminal acetyl (Ac-Leu)) [Compound 3]
1.45

(1) LSTCVLGRLSQELHRLQTYPRTNTGSNTY (Synthetic 29-residue peptide) [Compound 1]
(2) XLSTAVLGRLSQELHRLQTYPRTNTGSNTY (N-terminal acetyl (Ac-Leu)) [Compound 6]
When 1 and 2 are compared, which has the higher number for IC50? Returns: label corresponding to the selected item.
2
(2: 0.56 nM, 1: 0.22 nM)
